Measured IC50 values are reported for all entries that follow.
Target: human MPO (Homo sapiens, UniProt P05164)
Sequence (P05164 49-745): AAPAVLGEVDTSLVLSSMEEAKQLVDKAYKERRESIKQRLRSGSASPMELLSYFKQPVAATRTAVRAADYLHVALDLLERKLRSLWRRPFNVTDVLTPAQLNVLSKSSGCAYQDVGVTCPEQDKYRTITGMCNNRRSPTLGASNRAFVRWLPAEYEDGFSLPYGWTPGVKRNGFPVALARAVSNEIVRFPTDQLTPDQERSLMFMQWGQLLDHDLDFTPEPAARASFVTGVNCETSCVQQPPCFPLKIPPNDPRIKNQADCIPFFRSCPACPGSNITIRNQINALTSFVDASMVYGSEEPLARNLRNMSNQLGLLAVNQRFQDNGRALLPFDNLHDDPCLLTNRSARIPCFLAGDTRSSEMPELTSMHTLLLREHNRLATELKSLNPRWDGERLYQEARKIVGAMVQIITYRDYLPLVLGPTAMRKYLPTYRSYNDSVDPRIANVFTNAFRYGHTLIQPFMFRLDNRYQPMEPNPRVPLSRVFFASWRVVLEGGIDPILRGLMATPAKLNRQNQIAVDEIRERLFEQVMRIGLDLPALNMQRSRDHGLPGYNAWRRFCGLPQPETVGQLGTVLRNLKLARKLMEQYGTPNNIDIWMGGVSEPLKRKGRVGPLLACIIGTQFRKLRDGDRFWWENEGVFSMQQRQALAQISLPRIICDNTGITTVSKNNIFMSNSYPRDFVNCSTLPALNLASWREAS
Test: MPO inhibition screen (TMB oxidation, absorbance)
Conditions: in the presence of tyrosine (final 8 μM); human MPO 2.5 nM; H2O2 100 μM
Enter your answer as a number in µM; do not include the unit.

Some compounds with recorded IC50:
CC(C)Cn1c(=S)[nH]c(=O)c2[nH]ccc21; 0.26
CCOC(C)(C)Cn1c(=S)[nH]c(=O)c2[nH]ccc21; 1.1

Q: Requested read-out: IC50. Entry: CCCOc1cccc(Cn2c(=S)[nH]c(=O)c3[nH]ccc32)c1OCCOC
A: 0.22
